meta.source: the supplement of paper PMC12764529

- assay_protocol: folding stability dG unfold from trypsin proteolysis; higher = more stable
metric_name: folding stability dG unfold (kcal/mol)

- SAGGSAGGSAPWYIAIYMPGNGRKRTYPFKSADDIKEEIKEHLGPGMNPDNVEIKIIPPDDISAGGSAGGSA [r18_350_TrROS]: 0.279
- SAGGSAGGSAGGMKKKKLKEGVEIEFFREGDYLYVTTKIPETGKEETKKVKKVPKDIPLSAGGSAGGSAGGS [r10_240_JUSTAS]: -0.245
- SAIEIYIYPDNWMISIEPPNPNGPEKEIMIPIDKDDLKNPEFLKEIADEIMENGIPVEADIMPPGQPIPSAG [r14_60_TrROS]: 0.857
- SAGGSAPEVRLSASREGNTVTVLALKPVGDRTYLVVTTYEVRELGEGFLVLSSSEVIPLPDGEGFFSAGGSA [r15_725_TrMRF]: 1.63

* * *

- assay_protocol: folding stability dG unfold from trypsin proteolysis; higher = more stable
folding stability dG unfold reference
metric_name: folding stability dG unfold (kcal/mol)

- SMNITVTYDPETDTVTIEIDDEEIDPETLRELLDAIPPNVKRVIIHVDHPETARTVEELAKETGLPVEIASA [r9_919_TrMRF]: 3.96
- SAGGELVLLIRVTPERIEIRLLPKEALEGLELEAPPGERLLLVELEPPPPEEEEREERRREEREELEESAGG [r13_74_TrROS_Hall]: 1.34
- SAGIYIPMDMTIDELVDILQKFGIRSVTTERMPEPGMYKATLKFPDLTIEIWYHPNWMHIEIVPPGEPISAG [r5_899_TrROS]: 2.77
- SAGGSAGGSASSVVTPISHPDGRTGTKVTLPNGTVIEFIFYPDGTIIEINHSNNTTTVTPLVSAGGSAGGSA [r18_285_JUSTAS]: 1.44
- SMSVEISVPPTNPGASPEEIAAALAAKGRPVEVVSVSEDPSTGTRTVTIAVRAPDGTLEETVVVNAPVGVSA [r9_879_JUSTAS]: 0.495
- SAGGSAGGSAGSMFMIMIEYDPPGYIKVSINRYKMGPDGDFEPVEPETHEIPIPPGQPFFSAGGSAGGSAGG [r11_440_TrROS]: 1.91
- SNPNEPLTAEEIAKHIEEFMQEEHGIDKIKPEEFTVNPPDGYIKVEMEIEHKNPPGQKHKIDIWIPPDDLSA [r9_1002_TrROS]: 0.0662

* * *

- assay_protocol: folding stability dG unfold (combined trypsin and chymotrypsin); higher = more stable
metric_name: folding stability dG unfold (kcal/mol)

• SAGGKIEEVARELAKELNAVSIDFRTEGDVPSVEIRFRIPGSPLWLRVTITRDPDGNISVSIEPDPRSAGGS [r16_433_TrMRF] = 3.75
• SAGGSAGGSAPSKKVKFKVLAKNTKTGKYKEIDITAEVPVSNGKVVSIEELLKKFPDFELKPSAGGSAGGSA [r18_267_TrMRF] = 0.172
• SAGGSAGGSAGGMIKVTFKIPGKNETIEIDFDSEEELEEKFKELREKLGYNIEVVEIEESAGGSAGGSAGGS [r10_1087_JUSTAS] = 1.92
• SAGGSAGGSIEINPNGNFKIRFRGGNRPQTHTIPIKPGETLDTIKDTIRKHMGPNFPEVEIERSAGGSAGGS [r12_300_TrROS] = -0.152
• SAGATESETFALPGGEEVTVTTTYTPLPGDALRTTVTTWTTTLGPSGPAVTTATTTTTYPPELAAAGASAGG [r19_63_JUSTAS] = -0.807
• SAGGSAGGSAGGMPSSVVINLNLSKEEIEAIKKGKPVSPELKPAIEEAKKEGLKVEIKKSAGGSAGGSAGGS [r10_890_JUSTAS] = 0.309
• SAGGSAGGKVKFEIPNAKITSVEYDPNPGLLKVEFELPNGLKLTAIFKIDKDKAILAKIEISPESAGGSAGG [r6_718_TrMRF] = 3.23

* * *

# folding stability dG unfold per entry
- assay_protocol: folding stability dG unfold (combined trypsin and chymotrypsin); higher = more stable
metric_name: folding stability dG unfold

- SAGGGSTVTTTTPDGTSVSTTTLPDGTVTATATYPDSTVSTTYDPATNTTTVTTTSGGTTVATTTVAASAGG [r13_748_JUSTAS]: 1.89 kcal/mol
- SAGGSAGGSANSSSLPPNYVTPLPITVTDSRPGSYMPLEEREARAQALAEANPGVTVTVVRESAGGSAGGSA [r18_499_JUSTAS]: < -1 kcal/mol
- SAGGSAGGSAGLTLRVKVKVELEYDPETNELTLRVEVEIELFPPPPLVVLSKEQLEELEESAGGSAGGSAGG [r17_454_TrROS_Hall]: 3.21 kcal/mol
- SAGGDEIVERVRQLFEDLGFPVEIVDDDAPDGVLRVRISPEAVEKLGPLVINLPFPDIKEVRTELLPSAGGS [r8_318_TrMRF]: 1.26 kcal/mol
- SAGGSAGGSEPVPLKVKARFGDPGEEFEADIDIPKEALEGEALTPEQIKEALEALFPDVEIEGSAGGSAGGS [r20_221_TrMRF]: < -1 kcal/mol
- SAGGMKIEKTPVKIEKEGEDTVIEYKETEYLPDGTVKEYEGILRIPKNTGKITTLEKKLLSTEPILGSAGGS [r16_729_JUSTAS]: < -1 kcal/mol
- SMPPDEKLIFVTRFKVKPDNPEDIEKALAAARETVRALLEELGLPEVKEVRVLRVEVHPDGYVTVVVEVGSA [r9_754_TrMRF]: 4.49 kcal/mol
- SAGGSAGGSAGGSKIEIEEENGELKITIEVDGKKYEITIPKDMTLEEALKKALEKLPGLSAGGSAGGSAGGS [r4_191_TrROS_Hall]: 3.09 kcal/mol
- SAGGMTLKIRVKDKEKALEALKALPGIEVKEVKVEKNENGELTVTVESKEALDALKKAGIEVEEIEPSAGGS [r16_381_TrROS_Hall]: 2.9 kcal/mol
- SMYYLVTITVTIRKDGKPVSVTPIYLAVPPEKAEEVAAEIKKSHPDLEVTITMEVTEVSEDDEEVKELLKSA [r9_782_JUSTAS]: 2.79 kcal/mol
- SMTITHKIPPDDPEKAEEEIKEKIEKETGLKVEKVEVPEGDGATLVVTIDKEKPVVTAEVVPLLPDGTPVSA [r9_173_JUSTAS]: 0.191 kcal/mol
- SAGGSAGGSTTSTIKVTLENPSGSPLKLETATITTDPVAGTSTLTVTVPGTGETKFVGTNPNLSSAGGSAGG [r6_330_JUSTAS]: 0.107 kcal/mol
- SAGGSAPEVRLSASREGNTVTVLALKPVGDRTYLVVTTYEVRELGEGFLVLSSSEVIPLPDGEGFFSAGGSA [r15_725_TrMRF]: 2.36 kcal/mol
- SAGGSAGGMTLTLELTLENGKKVRIEVEVNENGSLKVKITYPNGKKVEIEVNMSLEELLKKLLSSAGGSAGG [r6_808_TrROS_Hall]: 3.91 kcal/mol

* * *

- assay_protocol: folding stability dG unfold from chymotrypsin proteolysis; higher = more stable
Assign met whenever folding stability dG unfold does not fall below 1 kcal/mol; assign not met whenever it does.

• SAGGGTYIEIKVTYSDGTTETFTVPAKPEDIETVVKEIEDKLKELGGTITSIKIENGKITIEATIPDSAGGS [r16_662_TrMRF] = met
• SAGGSADVVLVEVRPPVLDPEGRPLLTLVLRLPDGGSRTLVVELSDLAGALANLPPNVRVDEIRPLSAGGSA [r15_339_TrMRF] = met
• SAGGGSTVTTTTPDGTSVSTTTLPDGTVTATATYPDSTVSTTYDPATNTTTVTTTSGGTTVATTTVAASAGG [r13_748_JUSTAS] = met
• ARELPVEEIREAVREFLRKHGFRVVSEEVVELPDGSVLVFVEAEPEDKSTRYRLVITRPVDGSVRLVIEPVS [r1_460_TrMRF] = met
• SAGGMPVPVLIVVPEDKIEEIIKKIREETDEDVEIKAFKLPDGRVLLLITFNDPQLAEDFLKKFGFGSAGGS [r16_172_TrMRF] = met
• SIEEIADTLQKLGLNVNIDDIELEPNPDGRFRIQVQVSGEPIRQVEVPPPPPPPPEEEVRDPDGKEHKVRSA [r9_442_TrROS] = not met
• SAGGSAGGSAGGKKKKVKKKVTITIKLSAEEVAKLLKDLYPEKNIKIEENEDGSLSVTFTSAGGSAGGSAGG [r7_670_TrROS_Hall] = met
• SAGGSAGGSGSMEFTIDDEDLRIEIKFLPGGKVEITIWDPTNNVPLKTIETEPEEIEEVIEKLSAGGSAGGS [r20_129_JUSTAS] = met
• SAGGEEEILRQIREAAKKGEEVTIVFPKGMSIEELKKLIEEELGVEVEEIKVEKNENGELTVTIKVKSAGGS [r16_318_TrROS_Hall] = met
• SAIEIYIYPDNWMISIEPPNPNGPEKEIMIPIDKDDLKNPEFLKEIADEIMENGIPVEADIMPPGQPIPSAG [r14_60_TrROS] = not met
• SAGGSAGGSKPDTIKITFPDGFEIEINGPGMIMIRFPEQGYIFRIPIDPDKNEIKIEIVEPLPSAGGSAGGS [r12_539_TrROS] = met
• SAGGSAGGSAGGDPKKKKGGTFTLTFKLKFTVNIPEGKVEYEFKAKIKITINEPPDFGLSSAGGSAGGSAGG [r7_485_TrMRF] = met
• SAGGSAGGSAGGLHPDQEFAVRLDLDLDLRLGPGADLRVSDVRVGGVRVYDLRTGRWLDSAGGSAGGSAGGS [r10_248_TrMRF] = not met
• SAGGSAGGSAMTPDETRTVVVEEELPNGEPVVRVTDVRTLPDGSLETLGERVITREELEERSAGGSAGGSAG [r3_212_JUSTAS] = not met
